Entries and their measured Activity follow.
Biological target: Cannabinoid receptor 1 (Homo sapiens, UniProt P21554)
Sequence (P21554 whole entry): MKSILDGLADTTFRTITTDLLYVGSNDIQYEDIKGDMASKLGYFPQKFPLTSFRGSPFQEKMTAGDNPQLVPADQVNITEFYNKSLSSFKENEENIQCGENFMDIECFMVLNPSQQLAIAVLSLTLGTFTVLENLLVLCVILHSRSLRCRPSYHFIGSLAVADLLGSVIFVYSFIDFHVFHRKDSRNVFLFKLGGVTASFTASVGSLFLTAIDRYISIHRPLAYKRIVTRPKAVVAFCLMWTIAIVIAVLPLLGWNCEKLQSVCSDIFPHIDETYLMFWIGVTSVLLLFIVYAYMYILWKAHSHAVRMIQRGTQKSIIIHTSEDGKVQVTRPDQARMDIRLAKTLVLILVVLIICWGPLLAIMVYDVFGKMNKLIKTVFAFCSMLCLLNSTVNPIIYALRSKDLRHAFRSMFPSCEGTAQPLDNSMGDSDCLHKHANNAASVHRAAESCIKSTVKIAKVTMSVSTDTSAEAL
Assay: Agonist activity at human recombinant CB1 receptor expressed in CHO cells at 10 uM by FLIPR assay
Type: functional, cell-based
Just the number in %, nothing appended.

                    structure_smiles_string  unit_descriptor  result_value
0  Cc1nocc1S(=O)(=O)N1CCc2c(nc(C(C)(C)C)n2CC2CC2)C1                %            38
1  COCCS(=O)(=O)N1CCc2c(nc(C(C)(C)C)n2CC2CC2)C1                %            25

IN: Provide only the value of recorded Activity for Cc1noc(C)c1S(=O)(=O)N1CCc2c(nc(CC(C)(C)C)n2CC2CC2)C1
OUT: 24

IN: Provide only the value of recorded Activity for CC(C)(C)c1nc2c(n1CC1CC1)CCN(S(=O)(=O)c1ccccc1)C2
OUT: 10

IN: Provide only the value of recorded Activity for CC(C)(C)Cc1nc2c(n1CC1CC1)CCN(S(=O)(=O)c1ccccc1)C2
OUT: 9

IN: Provide only the value of recorded Activity for CC(C)(C)c1nc2c(n1CC1CC1)CCN(S(=O)(=O)Cc1ccccc1)C2
OUT: 13

IN: Provide only the value of recorded Activity for Cc1noc(C)c1S(=O)(=O)N1CCc2c(nc(C(C)(C)C)n2CC2CC2)C1
OUT: 66

IN: Provide only the value of recorded Activity for CC(C)(C)Cc1nc2c(n1CC1CC1)CCN(S(C)(=O)=O)C2
OUT: 9

IN: Provide only the value of recorded Activity for CC(C)(C)c1nc2c(n1CC1CC1)CCN(S(=O)(=O)c1cccnc1)C2
OUT: 11

IN: Provide only the value of recorded Activity for CC(C)(C)Cc1nc2c(n1CC1CC1)CCN(S(=O)(=O)Cc1ccccc1)C2
OUT: 15

###

Biological target: Cannabinoid receptor 2 (Homo sapiens, UniProt P34972)
Sequence (P34972 whole entry): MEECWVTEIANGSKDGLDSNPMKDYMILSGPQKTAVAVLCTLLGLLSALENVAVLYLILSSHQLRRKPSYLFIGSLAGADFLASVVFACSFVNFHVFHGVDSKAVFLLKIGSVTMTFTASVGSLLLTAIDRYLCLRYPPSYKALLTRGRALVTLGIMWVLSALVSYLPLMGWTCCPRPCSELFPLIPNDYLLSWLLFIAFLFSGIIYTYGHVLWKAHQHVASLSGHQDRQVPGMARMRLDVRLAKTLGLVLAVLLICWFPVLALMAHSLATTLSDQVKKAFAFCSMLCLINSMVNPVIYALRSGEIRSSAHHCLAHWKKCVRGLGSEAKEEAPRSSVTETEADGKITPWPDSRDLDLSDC
Assay: Agonist activity at human recombinant CB2 receptor expressed in CHO cells assessed as inhibition forskolin-induced cAMP release
Binned EC50; ranges: lower (below 20 nM), middle (20 nM to below 400 nM), upper (400 nM or more)

IN: Hey, which category is CCCCCN1CCc2c(nc(CC(C)(C)C)n2CC2CC2)C1 in, do you know?
OUT: upper

IN: Hey, which category is Cc1nocc1S(=O)(=O)N1CCc2c(nc(C(C)(C)C)n2CC2CC2)C1 in, do you know?
OUT: middle

IN: Hey, which category is COCCS(=O)(=O)N1CCc2c(nc(C(C)(C)C)n2CC2CC2)C1 in, do you know?
OUT: middle

IN: Hey, which category is CC(C)(C)Cc1nc2c(n1CC1CC1)CCN(S(=O)(=O)c1ccccc1)C2 in, do you know?
OUT: lower

IN: Hey, which category is Cc1noc(C)c1S(=O)(=O)N1CCc2c(nc(CC(C)(C)C)n2CC2CC2)C1 in, do you know?
OUT: lower

IN: Hey, which category is CC(C)(C)Cc1nc2c(n1CC1CC1)CCN(S(=O)(=O)Cc1ccccc1)C2 in, do you know?
OUT: lower

IN: Hey, which category is Cc1noc(C)c1S(=O)(=O)N1CCc2c(nc(C(C)(C)C)n2CC2CC2)C1 in, do you know?
OUT: lower

IN: Hey, which category is CCCCC(=O)N1CCc2c(nc(CC(C)(C)C)n2CC2CC2)C1 in, do you know?
OUT: upper

IN: Hey, which category is COCCS(=O)(=O)N1CCc2c(nc(CC(C)(C)C)n2CC2CC2)C1 in, do you know?
OUT: middle

IN: Hey, which category is CC(C)(C)Cc1nc2c(n1CC1CC1)CCN(S(=O)(=O)c1cccnc1)C2 in, do you know?
OUT: middle

IN: Hey, which category is CC(C)(C)c1nc2c(n1CC1CC1)CCN(S(=O)(=O)c1ccccc1)C2 in, do you know?
OUT: lower

IN: Hey, which category is CC(C)(C)Cc1nc2c(n1CC1CC1)CCN(S(C)(=O)=O)C2 in, do you know?
OUT: upper

###

Entries and their measured EC50 follow.
Biological target: Cannabinoid receptor 1 (Homo sapiens)
Test: Agonist activity at human recombinant CB1 receptor expressed in CHO cells by FLIPR assay
Just the number in µM, nothing appended.

In [3]: df
Out[3]:
                    structure_smiles_string  result_value
0  COCCS(=O)(=O)N1CCc2c(nc(CC(C)(C)C)n2CC2CC2)C1            14
1  Cc1nocc1S(=O)(=O)N1CCc2c(nc(C(C)(C)C)n2CC2CC2)C1            18

// next item, EC50 requested
IN: Provide Cannabinoid receptor 1 (Homo sapiens) EC50 reading for Cc1noc(C)c1S(=O)(=O)N1CCc2c(nc(C(C)(C)C)n2CC2CC2)C1 .
OUT: 7.5

###

Entries and their measured Activity follow.
Biological target: Cannabinoid receptor 1 (Homo sapiens)
Test: Agonist activity at human recombinant CB1 receptor expressed in CHO cells at 10 uM by FLIPR assay
Format: functional, cell-based
Just the number in %, nothing appended.

Previously resolved entries follow.
In [3]: df
Out[3]:
                    structure_smiles_string  result_value
0  CC(C)(C)Cc1nc2c(n1CC1CC1)CCN(S(=O)(=O)c1cccnc1)C2             4
1  COCCS(=O)(=O)N1CCc2c(nc(CC(C)(C)C)n2CC2CC2)C1            37

IN: Provide Cannabinoid receptor 1 (Homo sapiens) Activity reading for CC(C)(C)c1nc2c(n1CC1CC1)CCN(S(C)(=O)=O)C2 .
OUT: 10

IN: Provide Cannabinoid receptor 1 (Homo sapiens) Activity reading for Cc1nocc1S(=O)(=O)N1CCc2c(nc(CC(C)(C)C)n2CC2CC2)C1 .
OUT: 9

IN: Provide Cannabinoid receptor 1 (Homo sapiens) Activity reading for CCCCCCC(C)(C)c1ccc([C@@H]2C[C@H](O)CC[C@H]2CCCO)c(O)c1 .
OUT: 100

###

Target: UniProt:P34972
Test: Agonist activity at human recombinant CB2 receptor expressed in CHO cells assessed as inhibition forskolin-induced cAMP release
Format: functional, cell-based
Mark Fulfilled only when EC50 stays strictly below 300 nM. Values equal to the cut-off are Not fulfilled.

Reference set, count: 6
>>> df
                    structure_smiles_string   answer_label
0  CCCN(C)C(=O)N1CCc2c(nc(C(C)(C)C)n2CC2CC2)C1  Not fulfilled
1  CC(C)(C)C(=O)N1CCc2c(nc(C(C)(C)C)n2CC2CC2)C1  Not fulfilled
2  CC(C)(C)c1nc2c(n1CC1CC1)CCN(S(=O)(=O)c1cccnc1)C2      Fulfilled
3      CCCCCN1CCc2c(nc(C(C)(C)C)n2CC2CC2)C1  Not fulfilled
4  Cc1nocc1S(=O)(=O)N1CCc2c(nc(CC(C)(C)C)n2CC2CC2)C1      Fulfilled
5  CC(C)(C)c1nc2c(n1CC1CC1)CCN(S(=O)(=O)Cc1ccccc1)C2      Fulfilled

IN: Confirm or reject: EC50 of CN(Cc1ccccc1)C(=O)N1CCc2c(nc(C(C)(C)C)n2CC2CC2)C1 lies strictly below 300 nM
OUT: Not fulfilled

IN: Confirm or reject: EC50 of CCCOC(=O)N1CCc2c(nc(CC(C)(C)C)n2CC2CC2)C1 lies strictly below 300 nM
OUT: Not fulfilled

IN: Confirm or reject: EC50 of CC(C)(C)c1nc2c(n1CC1CC1)CCN(S(C)(=O)=O)C2 lies strictly below 300 nM
OUT: Not fulfilled

IN: Confirm or reject: EC50 of CN(Cc1ccccc1)C(=O)N1CCc2c(nc(CC(C)(C)C)n2CC2CC2)C1 lies strictly below 300 nM
OUT: Not fulfilled

The measurements presented in this section are drawn from ChEMBL document CHEMBL1153626.
